Test system: Pichia kudriavzevii
procedure.text: Antifungal activity against Candida krusei after 48 hrs by CLSI method
Assay type: functional

{"molecule": "OC(Cn1cncn1)(Cn1cncn1)c1ccc(F)cc1F", "assay.system": "Pichia kudriavzevii", "MIC90": "64 µg/mL"}
{"molecule": "CCC(C)n1ncn(-c2ccc(N3CCN(c4ccc(OCC5COC(Cn6cncn6)(c6ccc(Cl)cc6Cl)O5)cc4)CC3)cc2)c1=O (stereo unspecified)", "assay.system": "Pichia kudriavzevii", "MIC90": "0.5 µg/mL"}
{"molecule": "C[C@@H]1[C@H](O)[C@@H](C)/C=C/C=C/C=C/C=C/C=C/C=C/C=C/[C@H](O[C@@H]2O[C@H](C)[C@@H](O)[C@H](N)[C@@H]2O)C[C@@H]2O[C@](O)(C[C@@H](O)C[C@@H](O)[C@H](O)CC[C@@H](O)C[C@@H](O)CC(=O)O[C@H]1C)C[C@H](O)[C@H]2C(=O)O", "assay.system": "Pichia kudriavzevii", "MIC90": "2 µg/mL"}
{"molecule": "CC[C@H](C)C[C@H](C)CCCCCCCCC(=O)N[C@H]1C[C@@H](O)[C@@H](NCCN)NC(=O)[C@@H]2[C@@H](O)CCN2C(=O)[C@H]([C@H](O)CCN)NC(=O)[C@H]([C@H](O)[C@@H](O)c2ccc(O)cc2)NC(=O)[C@@H]2C[C@@H](O)CN2C(=O)[C@H]([C@@H](C)O)NC1=O", "assay.system": "Pichia kudriavzevii", "MIC90": "1 µg/mL"}
{"molecule": "CC[C@@H]([C@H](C)O)n1ncn(-c2ccc(N3CCN(c4ccc(OC[C@@H]5CO[C@@](Cn6cncn6)(c6ccc(F)cc6F)C5)cc4)CC3)cc2)c1=O", "assay.system": "Pichia kudriavzevii", "MIC90": "0.25 µg/mL"}
{"molecule": "C[C@@H](c1ncncc1F)[C@](O)(Cn1cncn1)c1ccc(F)cc1F", "assay.system": "Pichia kudriavzevii", "MIC90": "0.5 µg/mL"}

* * *

Test system: Candida albicans
procedure.text: Antifungal activity against Candida albicans after 48 hrs by CLSI method
Type: functional
*1 amine or outer side, *2 acyl side, *3 side chain or, on linkers, in order; H or OH if unused. Where a SMILES comes first, the peptide text is derived from it. Bridges are numbered along the chain shown (N, C = ends). [ ]: non-standard residue; d: D form. The star is where a group is joined. pTerphenylCO(4''-OnC5H11) = CCCCCOc1ccc(-c2ccc(-c3ccc(C(=O)*)cc3)cc2)cc1; Orn(4R-OH,5R-OH) = O=C([C@H](C[C@@H](O)[C@@H](O)N[*:3])N[*:1])[*:2]; hTyr(3S-OH,4S-OH) = N[C@H](C(=O)O)[C@H](O)[C@@H](O)c1ccc(O)cc1; Pro(3S-OH,4S-Me) = C[C@H]1CN[C@H](C(=O)O)[C@H]1O; Hyp = O=C(O)[C@@H]1C[C@@H](O)CN1

{"compound": "C[C@@H]1[C@H](O)[C@@H](C)/C=C/C=C/C=C/C=C/C=C/C=C/C=C/[C@H](O[C@@H]2O[C@H](C)[C@@H](O)[C@H](N)[C@@H]2O)C[C@@H]2O[C@](O)(C[C@@H](O)C[C@@H](O)[C@H](O)CC[C@@H](O)C[C@@H](O)CC(=O)O[C@H]1C)C[C@H](O)[C@H]2C(=O)O", "assay.system": "Candida albicans", "MIC90": "1 µg/mL"}
{"compound": "OC(Cn1cncn1)(Cn1cncn1)c1ccc(F)cc1F", "assay.system": "Candida albicans", "MIC90": "0.25 µg/mL"}
{"compound": "CCCCCOc1ccc(-c2ccc(-c3ccc(C(=O)N[C@H]4C[C@@H](O)[C@@H](O)NC(=O)[C@@H]5[C@@H](O)[C@@H](C)CN5C(=O)[C@H]([C@@H](C)O)NC(=O)[C@H]([C@H](O)[C@@H](O)c5ccc(O)cc5)NC(=O)[C@@H]5C[C@@H](O)CN5C(=O)[C@H]([C@@H](C)O)NC4=O)cc3)cc2)cc1 [ANIDULAFUNGIN] ({pTerphenylCO(4''-OnC5H11)}-[Orn(4R-OH,5R-OH)]T[Hyp][hTyr(3S-OH,4S-OH)]T[Pro(3S-OH,4S-Me)]; lactam 1-C)", "assay.system": "Candida albicans", "MIC90": "0.015 µg/mL"}
